Hey, just so you know, these numbers are from paper PMC3608651.

A collection of substances and their measured O-rate A*02:01 (t1/2)
# test.system: HLA-A*02:01 (Homo sapiens, UniProt P04439, D140Y/D185E/D98H/E176V/E277Q/G131W/G231S/I119V/I121R/I166T/I218V/L300P/L318F/N151K/N90K/P208A/P217A/Q86G/Q94H/R138H/R169H/T345S)
# Assay type: binding
# condition.description: time points 0-8 h; time when 50% of peptide has dissociated
Report only the number, with the unit h understood.

substance	reported.property	unit.of.measurement	number
LSMAGSSAM	O-rate A*02:01 (t1/2)	h	1.4
QT YKWETFL	O-rate A*02:01 (t1/2)	h	2.6
NLARTISEA [Rv3875_71–79]	O-rate A*02:01 (t1/2)	h	2.3
ALQNLARTI [Rv3875_68–76]	O-rate A*02:01 (t1/2)	h	1.7
GT HSWEYWG	O-rate A*02:01 (t1/2)	h	0.3

Exam item: Entry KLAAAWGGS [Rv3875_38-46] has what O-rate A*02:01 (t1/2)?
Marked response: 2

Exam item: Same question for AMASTEGNV [Rv3875_82–90] please.
Marked response: 1.0

###

A collection of substances and their measured Aff C*07:01 (ED50)
# test.system: HLA-C*07:01 (Homo sapiens, UniProt P10321, K90N/S123Y)
# run.description: affinity assay (ED50)
# Assay type: binding
Report only the number, with the unit E -07 M understood.

substance	reported.property	unit.of.measurement	number
RAVKPT GSA	Aff C*07:01 (ED50)	E -07 M	2

Now look at this one.
Exam item: Entry LAAYHPQQF has what Aff C*07:01 (ED50)?
Marked response: 1

###

# test.system: HLA-C*07:01 (Homo sapiens, UniProt P10321, K90N/S123Y)
# Format: binding
# condition.description: percent relative the binding of positive control peptide […]; duplicated experiments; positive binder >40%
API: label(entry) gives Condition met if the entry's Bind C*07:01 is strictly smaller than 5%; on equality or larger values it gives Condition not met.

Consider the following illustrative entries.
substance	assigned.category
FVRSSNLKF	Condition not met
PQWLSANRA	Condition met
AVKPTGSAA	Condition met
ILAAYHPQQ	Condition met
TGITYQAWQ [Rv0288_47–55]	Condition met

Exam item: In plain terms, does DAYNAAGGH come in under 5% for Bind C*07:01?
Marked response: Condition not met

Exam item: Same question for ITYQAWQAQ [Rv0288_49–57] please.
Marked response: Condition met

Exam item: Same question for LIGLAMGDA please.
Marked response: Condition met

Exam item: Same question for GSAAIGLSM please.
Marked response: Condition not met

Exam item: Same question for HAMSSTHEA [Rv0288_70–78] please.
Marked response: Condition not met

Exam item: Same question for AMILAAYHP please.
Marked response: Condition met

###

# test.system: HLA-A*24:02 (Homo sapiens, UniProt P04439, D101N/D140Y/D185E/E176V/E190D/F33S/G103R/G107R/I119L/I121M/I306V/K335N/L105A/L180Q/L300P/N151K/N90K/Q86E/Q94H/R106L/R138H/R89G/T104I/T345S/V100E/W191G/Y123F)
# Assay type: binding
# condition.description: percent relative the binding of positive control peptide […]; duplicated experiments; positive binder >40%
reported.property: Bind A*24:02 (%)
Report only the number, with the unit % understood.

Exam item: Entry LLDGLRAQD has what Bind A*24:02?
Marked response: 0

Exam item: Same question for AMLDHAGDM [Rv0288_10–18m2] please.
Marked response: 13

Exam item: Same question for NFPPNGTHS please.
Marked response: 0

Exam item: Same question for GNNSPAVYL please.
Marked response: 6

Exam item: Same question for MYNYPTMLG [Rv0288_5–13m1] please.
Marked response: 47

Exam item: Same question for GLSMAGSSA please.
Marked response: 0

Exam item: Same question for PQWLSANRA please.
Marked response: 75

Exam item: Same question for YHPQQFIYA please.
Marked response: 0

Exam item: Same question for AAYHPQQFI please.
Marked response: 54

Exam item: Same question for GLSIVMPVG please.
Marked response: 0

Exam item: Same question for LTSELPQW L please.
Marked response: 9

Exam item: Same question for MYNYPAMLD [Rv0288_5–13m2] please.
Marked response: 60

###

# test.system: HLA-A*30:02 (Homo sapiens, UniProt P04439, D101N/D140H/D185E/E176R/F33S/G80R/H175R/K168Q/Q94H/R138E/R41S/V100E)
# Type: binding
# condition.description: percent relative the binding of positive control peptide […]; duplicated experiments; positive binder >40%
A collection of sequences and their measured Bind A*30:02
Report only the number, with the unit % understood.

entry.sequence	number
WGAQLNAMK	67
YNAAGGHNA	53
YLLDGLRAQ	10
ANNTRLWVY	195
SQIMYNYPT [Rv0288_2–10m1]	31

Now look at this one.
Exam item: Entry KPTGSAAIG has what Bind A*30:02?
Marked response: 0

###

# test.system: HLA-B*58:01 (Homo sapiens, UniProt P01889, A329T/C349S/D201E/D98Y/E176V/E187L/E204Q/E69T/G107R/I218V/I90N/K202T/L105A/L119I/N104I/N87E/Q89R/Q94S/R106L/R155S/R180L/R86G/S101N/S121R/S35A/S48A/T118I/V127L/V306I/V36M/Y140S/Y91M)
# Type: binding
# condition.description: percent relative the binding of positive control peptide IAMESIVIW; duplicated experiments; positive binder >40%
A collection of sequences and their measured Bind B*58:01
Report only the number, with the unit % understood.

entry.sequence	reported.property	number
AGQAMASTE [Rv3875_79–87]	Bind B*58:01	11

Exam item: Entry KLAAAWGGS [Rv3875_38-46] has what Bind B*58:01?
Marked response: 21

Exam item: Same question for AAWGGSGSE [Rv3875_41–49] please.
Marked response: 9

Exam item: Same question for IQGNVTSIH [Rv3875_18–26] please.
Marked response: 7

Exam item: Same question for VQQKWDATA [Rv3875_54–62] please.
Marked response: 12

Exam item: Same question for WGGSGSEAY [Rv3875_43–51] please.
Marked response: 2

Exam item: Same question for ATELNNALQ [Rv3875_62–70] please.
Marked response: 4

###

# test.system: HLA-B*58:01 (Homo sapiens, UniProt P01889, A329T/C349S/D201E/D98Y/E176V/E187L/E204Q/E69T/G107R/I218V/I90N/K202T/L105A/L119I/N104I/N87E/Q89R/Q94S/R106L/R155S/R180L/R86G/S101N/S121R/S35A/S48A/T118I/V127L/V306I/V36M/Y140S/Y91M)
# Type: binding
# condition.description: percent relative the binding of positive control peptide […]; duplicated experiments; positive binder >40%
API: label(entry) gives class 1 if the entry's Bind B*58:01 is strictly smaller than 10%; on equality or larger values it gives class 0.

Consider the following illustrative entries.
entry.sequence	assigned.category
GMGPSLIGL	class 1
YNYPAMLGH [Rv0288_6–14]	class 1
RAYHSMSST [Rv0288_67–75m1]	class 0

Exam item: In plain terms, does MSQIMYNYP [Rv0288_1–9] come in under 10% for Bind B*58:01?
Marked response: class 0

Exam item: Same question for FVRSSNLKF please.
Marked response: class 0

Exam item: Same question for YSDWYSPAC please.
Marked response: class 0

Exam item: Same question for LAAYHPQQF please.
Marked response: class 0

Exam item: Same question for AVFNFPPNG please.
Marked response: class 0

###

# test.system: HLA-A*68:01 (Homo sapiens, UniProt P04439, A269V/D185E/E176V/E277Q/E87N/F33Y/G231S/I121M/I166T/I218V/L180W/L300P/L318F/N151K/P208A/P217A/Q86R/R169H/T345S)
# Assay type: binding
# condition.description: percent relative the binding of positive control peptide […]; duplicated experiments; positive binder >40%
reported.property: Bind A*68:01 (%)
Report only the number, with the unit % understood.

Exam item: Entry QWLSANRAV has what Bind A*68:01?
Marked response: 13

Exam item: Same question for SSAMILAAY please.
Marked response: 101

Exam item: Same question for CGKAGCQT Y please.
Marked response: 60

Exam item: Same question for NFPPNGTHS please.
Marked response: 0

Exam item: Same question for SAAIGLSMA please.
Marked response: 0

Exam item: Same question for FLENFVRSS please.
Marked response: 7

Exam item: Same question for GSSAMILAA please.
Marked response: 4

Exam item: Same question for GNNSPAVYL please.
Marked response: 3
